biological target: T1, Tim3-ECD-His-Biotin (human, UniProt Q8TDQ0 22-202, biotinylated with BirA Ligase); test: ELISA on Tim3-ECD-His-Biotin
T1 construct: Coated on streptavidin plates; also called human Tim3 (ELISA); Biochem Human
REPORTED_METRIC: EC50 (µg/mL)
Dear colleague, please return just the value in µg/mL, with no unit written.

Known EC50 results, listed for orientation:
BINDER	EC50 (µg/mL)
anti-TIM3 antibody Tim3_0021 (antibody, V domains shown, Mouse monoclonal from hybridoma) VH: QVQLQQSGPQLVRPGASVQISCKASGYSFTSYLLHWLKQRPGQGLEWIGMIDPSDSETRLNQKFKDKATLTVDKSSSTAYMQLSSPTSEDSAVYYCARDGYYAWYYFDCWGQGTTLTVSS VL: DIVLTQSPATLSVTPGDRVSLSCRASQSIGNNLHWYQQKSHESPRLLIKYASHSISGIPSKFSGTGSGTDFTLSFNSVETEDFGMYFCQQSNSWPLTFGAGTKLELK	0.047
anti-TIM3 antibody Tim3_0033 (antibody, V domains shown, Mouse monoclonal from hybridoma) VH: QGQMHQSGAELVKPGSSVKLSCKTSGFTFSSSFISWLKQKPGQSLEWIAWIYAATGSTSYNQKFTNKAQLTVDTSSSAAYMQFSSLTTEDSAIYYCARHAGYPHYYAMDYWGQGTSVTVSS VL: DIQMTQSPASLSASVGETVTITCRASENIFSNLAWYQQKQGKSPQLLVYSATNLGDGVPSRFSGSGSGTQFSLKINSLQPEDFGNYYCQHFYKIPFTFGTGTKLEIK	1.32

Now for the binder whose EC50 we want.
Query: Requested field: EC50. Item: anti-TIM3 antibody Tim3_0038 (antibody, V domains shown, Mouse monoclonal from hybridoma) VH: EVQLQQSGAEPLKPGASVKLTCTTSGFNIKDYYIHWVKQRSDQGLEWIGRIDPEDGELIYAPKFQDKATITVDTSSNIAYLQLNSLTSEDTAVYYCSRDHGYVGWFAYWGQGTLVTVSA VL: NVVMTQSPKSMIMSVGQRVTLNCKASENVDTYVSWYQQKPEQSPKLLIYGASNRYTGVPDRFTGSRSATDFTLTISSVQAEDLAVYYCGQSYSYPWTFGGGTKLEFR
Result: 0.083
